Test system: BaF3 cells expressing FLT3ITD
Assay: BaF3 proliferation, colorimetric WST-1 assay
Type: cell-based, murine
Conditions: Mus musculus, BaF3, read-out: IC50, growth inhibition
Each entry below lists one item and its recorded pIC50 value.
When answering, recall that pIC50 equals minus log10 of the concentration in mol/L, and write that number alone.

molecule-smiles: Cc1ccc(C(=O)Nc2ccc(CN3CCN(C)CC3)c(C(F)(F)F)c2)cc1C#Cc1cnc2cccnn12
measured-quantity: pIC50
endpoint-result: 8.60

Attention now turns to another entry.
Request: Reported pIC50, molecule CN1CCN(Cc2ccc(NC(=O)c3cncc(C#Cc4cnc5cccnn45)c3)cc2C(F)(F)F)CC1 : ____
Result: 10.40

The origin of these recorded values is paper PMC11178545.
